# Assay System: VLA-4 (α4β1 integrin) binding to immobilized VCAM-1 (Homo sapiens, UniProt P05556+P13612)
# Construct: followed by 10 μl of Ramos cell-derived VLA-4; endogenous in cells; host or cells: Ramos cells (VLA-4 preparation derived from the cells)
# Experiment Summary: VLA-4/VCAM-1 Screening Assay (solid-phase, dual antibody ELISA)
Reported Endpoint: pIC50
Lab note — pIC50 values are minus log10 of concentrations in M.

What pIC50 value was documented for this compound, O=C(NCCC1(C(=O)N[C@@H](Cc2ccc(NC(=O)c3c(Cl)cccc3Cl)cc2)C(=O)O)CCCC1)c1ccncc1 ?
8.24

* * *

# Assay System: cell-surface VLA-4 (α4β1 integrin) on Ramos cells binding to immobilized VCAM-1 (Homo sapiens, UniProt P05556+P13612)
# Construct: Ramos cells bearing cell-surface VLA-4; endogenous in cells; host or cells: Ramos cells (VLA-4); VCAM-1 purified from CHO cell culture media
# Sequence (P13612 34-1032): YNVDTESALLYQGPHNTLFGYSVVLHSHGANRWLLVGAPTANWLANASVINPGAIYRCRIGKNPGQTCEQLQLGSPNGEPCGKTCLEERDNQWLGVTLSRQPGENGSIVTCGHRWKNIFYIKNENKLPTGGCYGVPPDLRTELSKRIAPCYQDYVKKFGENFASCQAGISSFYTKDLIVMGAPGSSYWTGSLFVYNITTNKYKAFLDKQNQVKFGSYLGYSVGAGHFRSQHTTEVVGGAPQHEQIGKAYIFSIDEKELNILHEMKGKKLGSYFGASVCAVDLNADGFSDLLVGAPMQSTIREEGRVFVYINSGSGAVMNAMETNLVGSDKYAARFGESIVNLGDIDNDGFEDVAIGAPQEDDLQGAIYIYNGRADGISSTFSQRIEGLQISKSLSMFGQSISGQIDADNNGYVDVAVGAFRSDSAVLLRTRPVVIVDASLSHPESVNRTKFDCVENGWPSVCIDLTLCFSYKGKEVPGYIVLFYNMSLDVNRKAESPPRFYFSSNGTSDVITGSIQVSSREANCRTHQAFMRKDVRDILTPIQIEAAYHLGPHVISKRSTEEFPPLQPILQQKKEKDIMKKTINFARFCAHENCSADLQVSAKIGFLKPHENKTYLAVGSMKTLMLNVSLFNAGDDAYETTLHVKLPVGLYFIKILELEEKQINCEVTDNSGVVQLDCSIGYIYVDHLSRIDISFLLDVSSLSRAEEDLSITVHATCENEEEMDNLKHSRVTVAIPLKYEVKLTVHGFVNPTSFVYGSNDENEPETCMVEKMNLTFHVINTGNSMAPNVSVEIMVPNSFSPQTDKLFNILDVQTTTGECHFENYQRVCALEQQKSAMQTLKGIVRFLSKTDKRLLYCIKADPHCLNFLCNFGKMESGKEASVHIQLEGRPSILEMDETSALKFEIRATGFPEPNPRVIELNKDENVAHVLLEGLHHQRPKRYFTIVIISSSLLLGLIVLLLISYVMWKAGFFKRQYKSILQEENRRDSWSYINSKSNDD
# Sequence (P05556 21-798): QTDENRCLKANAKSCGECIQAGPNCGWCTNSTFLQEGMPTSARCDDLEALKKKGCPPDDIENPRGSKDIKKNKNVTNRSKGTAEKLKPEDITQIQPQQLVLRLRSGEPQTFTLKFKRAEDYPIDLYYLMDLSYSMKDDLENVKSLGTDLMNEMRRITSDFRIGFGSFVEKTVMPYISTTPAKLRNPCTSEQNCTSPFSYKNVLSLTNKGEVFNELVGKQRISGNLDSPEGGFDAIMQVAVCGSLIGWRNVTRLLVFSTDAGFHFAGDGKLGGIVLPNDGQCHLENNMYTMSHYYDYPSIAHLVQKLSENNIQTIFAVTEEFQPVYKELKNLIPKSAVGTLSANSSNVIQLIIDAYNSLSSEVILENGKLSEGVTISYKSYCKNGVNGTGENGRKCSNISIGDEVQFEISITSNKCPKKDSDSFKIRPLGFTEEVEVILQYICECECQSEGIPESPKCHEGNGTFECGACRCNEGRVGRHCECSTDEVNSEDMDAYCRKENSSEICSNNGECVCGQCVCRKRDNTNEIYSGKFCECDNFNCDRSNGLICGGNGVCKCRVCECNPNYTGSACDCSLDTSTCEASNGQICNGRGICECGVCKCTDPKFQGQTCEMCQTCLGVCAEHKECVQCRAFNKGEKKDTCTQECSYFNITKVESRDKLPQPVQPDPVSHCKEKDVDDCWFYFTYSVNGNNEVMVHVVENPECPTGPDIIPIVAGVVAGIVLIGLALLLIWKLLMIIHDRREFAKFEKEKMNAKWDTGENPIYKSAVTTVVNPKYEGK
# Experiment Summary: Ramos (VLA-4)/VCAM-1 Cell-Based Screening Assay (cell adhesion)
# Condition Description: Conc. 10 nM; Ramos cell adhesion to VCAM-1
Threshold rule: inhibition at 0.01 µM greater than or equal to 40% is Yes; below that, No.

Example cases with answers are listed next.
Please check the record CC(=O)NCCC1(C(=O)NC(Cc2ccc(N3C(=O)C(Cc4ccccc4)N(C(=O)COc4ccccc4)C3c3ccccc3)cc2)C(=O)O)CCCC1 (single isomer, unassigned) [Example 317] and state if its inhibition at 0.01 µM is at or above 40%.
No

Please tell me: is the compound CCCC(=O)N1C(Cc2cccnc2)C(=O)N(c2ccc(CC(NC(=O)C3(CCNC(C)=O)CCCC3)C(=O)O)cc2)C1c1ccc(Cl)cc1 (centres unmarked) [Example 304] at or over 40% in terms of inhibition at 0.01 µM?
No

---
Kindly determine if inhibition at 0.01 µM recorded for CC(=O)NCCC1(C(=O)NC(Cc2ccc(N3C(=O)C(C)N(C(=O)COc4ccccc4)C3c3ccccc3)cc2)C(=O)O)CCCC1 (single isomer, unassigned) [Example 349] is above or exactly 40%.
Yes

Please check the record CC(=O)NCCC1(C(=O)NC(Cc2ccc(N3C(=O)C(C)N(C(C)=O)C3c3ccccc3)cc2)C(=O)O)CCCC1 (single isomer, unassigned) [Example 342] and state if its inhibition at 0.01 µM is at or above 40%.
No

Hi team, for CCCC(=O)N1C(Cc2ccc(OC)cc2)C(=O)N(c2ccc(CC(NC(=O)C3(CCNC(C)=O)CCCC3)C(=O)O)cc2)C1c1ccc(Cl)cc1 (single isomer, unassigned) [Example 288] , is the recorded inhibition at 0.01 µM at or above 40%?
Yes

* * *

melting point listing for selected molecules.

In the examples that follow, each entry is paired with its recorded melting point.
Would you kindly share the measured melting point for COCCC1(C(=O)N[C@@H](Cc2ccc(NC(=O)c3c(Cl)cccc3Cl)cc2)C(=O)O)CCCC1 ?
136 to 140 °C

Quick one: melting point of C[S+]([O-])CCC1(C(=O)N[C@@H](Cc2ccc(NC(=O)c3c(Cl)cccc3Cl)cc2)C(=O)O)CCCC1 (some centres unmarked) ?
255 to 258 °C

I would be grateful if you could share the reported melting point for COc1ccc(CC2(C(=O)N[C@@H](Cc3ccc(NC(=O)c4c(Cl)cccc4Cl)cc3)C(=O)O)CCCCC2)cc1 .
136 to 140 °C

What value of melting point has been reported for the following molecule? COCCC1(C(=O)N[C@@H](Cc2ccc(N3C(=O)c4ccc(C#N)cc4C3=O)cc2)C(=O)O)CCCC1
143 to 146 °C

Give the measured melting point of COCCC1(C(=O)N[C@@H](Cc2ccc(NC(=O)c3cc(C#N)ccc3Cl)cc2)C(=O)O)CCCC1 .
169 to 172 °C

So what does the record say about melting point for CS(=O)(=O)CCC1(C(=O)N[C@@H](Cc2ccc(NC(=O)c3c(Cl)cccc3Cl)cc2)C(=O)O)CCCC1 ?
184 to 187 °C

Would you kindly share the measured melting point for COCCC1(C(=O)N[C@@H](Cc2ccc(NC(=O)c3cc(C#N)ccc3Cl)cc2)C(=O)OC)CCCC1 ?
172 to 175 °C

// below: melting point requested for another molecule
May I ask what melting point has been recorded for COCCC1(C(=O)N[C@@H](Cc2ccc(NC(=O)c3c(Cl)cccc3Cl)cc2)C(=O)OC)CCCC1 ?
85 to 87 °C

* * *

# Assay System: VLA-4 (α4β1 integrin) binding to immobilized VCAM-1 (Homo sapiens, UniProt P05556+P13612)
# Construct: followed by 10 μl of Ramos cell-derived VLA-4; endogenous in cells; host or cells: Ramos cells (VLA-4 preparation derived from the cells)
# Experiment Summary: VLA-4/VCAM-1 Screening Assay (solid-phase, dual antibody ELISA)
# Condition Description: Ramos cell-derived VLA-4, recombinant human VCAM-1 coated plates, 2 hr at 37° C.; read-out: IC50
Reported Endpoint: log10 IC50 (log10 of the value in nM)
Plainly stated, the numbers are log10 of IC50 given in nM.

So what does the record say about log10 IC50 for COc1ccc(CC2(C(=O)N[C@@H](Cc3ccc(NC(=O)c4c(Cl)cccc4Cl)cc3)C(=O)O)CCCC2)cc1 [Example 95] ?
-0.16

* * *

# Assay System: VLA-4 (α4β1 integrin) binding to immobilized VCAM-1 (Homo sapiens, UniProt P05556+P13612)
# Construct: followed by 10 μl of Ramos cell-derived VLA-4; endogenous in cells; host or cells: Ramos cells (VLA-4 preparation derived from the cells)
# Experiment Summary: VLA-4/VCAM-1 Screening Assay (solid-phase, dual antibody ELISA)
# Condition Description: Ramos cell-derived VLA-4, recombinant human VCAM-1 coated plates, 2 hr at 37° C.; read-out: IC50
Reported Endpoint: pIC50
Bear in mind: pIC50 is minus log10 of a mol/L concentration; give just that figure.

Which pIC50 value is on record for COCCC1(C(=O)NC(Cc2ccc(N3C(=O)C(CC(C)C)N(C(C)=O)C3c3ccc(Cl)cc3)cc2)C(=O)O)CCCC1 (single isomer, unassigned) [Example 132] ?
8.55

Need pIC50 of CC(C)(C)OC(=O)NCCC1(C(=O)N[C@@H](Cc2ccc(NC(=O)c3c(Cl)cccc3Cl)cc2)C(=O)O)CCCC1 , thanks.
8.70

Which pIC50 is reported for this compound? COc1ccc(C2(C(=O)N[C@@H](Cc3ccc(N4C(=O)CSC4c4ccc5ccccc5c4)cc3)C(=O)O)CCCCC2)cc1 (stereo partly drawn)
8.77

Fill in the blank: the reported pIC50 of CCCCC(CC)C(=O)NCCC1(C(=O)N[C@@H](Cc2ccc(NC(=O)c3c(Cl)cccc3Cl)cc2)C(=O)O)CCCC1 (stereo partly drawn) is ____.
8.03

Need pIC50, item COCCC1(C(=O)NC(Cc2ccc(N3C(=O)C(CC(C)C)N(C(C)=O)C3c3ccc(OC)cc3)cc2)C(=O)O)CCCC1 (single isomer, unassigned) [Example 131]
7.20

***
So what's the measured pIC50 for this one? CCC(C(=O)N[C@@H](Cc1ccc(NC(=O)c2ccnc3ccccc23)cc1)C(=O)O)c1ccccc1 (stereo partly drawn)
8.24

* * *

# Assay System: VLA-4 (α4β1 integrin) binding to immobilized VCAM-1 (Homo sapiens, UniProt P05556+P13612)
# Construct: followed by 10 μl of Ramos cell-derived VLA-4; endogenous in cells; host or cells: Ramos cells (VLA-4 preparation derived from the cells)
# Experiment Summary: VLA-4/VCAM-1 Screening Assay (solid-phase, dual antibody ELISA)
# Condition Description: Ramos cell-derived VLA-4, recombinant human VCAM-1 coated plates, 2 hr at 37° C.; read-out: IC50
IC50 less than 9 nM is T; IC50 greater than or equal to 9 nM is F.

Hello, is IC50 of the following compound strictly smaller than 9 nM? CC(=O)N(C)CCC1(C(=O)N[C@@H](Cc2ccc(NC(=O)c3c(Cl)cccc3Cl)cc2)C(=O)O)CCCC1 [Example 200]
T

# TODO verify IC50 < 9 nM strictly for this compound: COCC(=O)NCCC1(C(=O)N[C@@H](Cc2ccc(NC(=O)c3c(Cl)cccc3Cl)cc2)C(=O)O)CCCC1 [Example 162]
T

Field: below-cutoff. Rule: recorded IC50 strictly less than 9 nM. Subject: CCCCC(C)(CC)C(=O)N[C@@H](Cc1ccc(NC(=O)N2CCC(C#N)(c3ccccc3)CC2)cc1)C(=O)O (stereo partly shown) [Example 120]
T

More entries:
Dear colleague, could you confirm whether IC50 of COC(=O)CCC(=O)NCCC1(C(=O)N[C@@H](Cc2ccc(NC(=O)c3c(Cl)cccc3Cl)cc2)C(=O)O)CCCC1 [Example 163] falls below 9 nM? Thanks.
T

Find out if reported IC50 for CCCCC(C)(CC)C(=O)N[C@@H](Cc1ccc(NC(=O)[C@H](Cc2ccc(O)cc2)NC(C)=O)cc1)C(=O)O (stereo partly shown) [Example 91] is less than 9 nM
F
